Assay: Cytotoxicity against human glomerular mesangial cells incubated for 12 hrs by MTT assay
Format: cell-based
Conditions: Glomerular mesangial cell
Where a SMILES comes first, the peptide text is derived from it. Bridges are numbered along the chain shown (N, C = ends). [ ]: non-standard residue; d: D form. The star is where a group is joined. X1 = CC[C@H](C)CCCCC(=O)*; Dab = NCC[C@H](N)C(=O)O
property: IC50

Before answering, review these 2 worked examples.
compound	IC50
CC[C@H](C)[C@H](NC(=O)[C@H](CCCNC(=N)N)NC(=O)[C@H](CCCCN)NC(=O)[C@H](CC(C)C)NC(=O)[C@H](CC(C)C)NC(=O)CN)C(=O)N[C@@H](CCCCN)C(=O)N[C@H](C(=O)N[C@@H](CC(C)C)C(=O)N[C@@H](CC(C)C)C(N)=O)[C@@H](C)O [ANOPLIN] (H-GLLKRIKTLL-NH2)	≥ 512 µM
CC[C@H](C)CCCCC(=O)N[C@@H](CCN)C(=O)N[C@H](C(=O)N[C@@H](CCN)C(=O)N[C@H]1CCNC(=O)[C@H]([C@@H](C)O)NC(=O)[C@H](CCN)NC(=O)[C@H](CCN)NC(=O)[C@H](CC(C)C)NC(=O)[C@@H](Cc2ccccc2)NC(=O)[C@H](CCN)NC1=O)[C@@H](C)O (X1-[Dab]T[Dab][Dab][Dab][dF]L[Dab][Dab]T; lactam 4-C)	≥ 512 µM

Read the next record carefully.
Just so you know, measured IC50 for CC[C@H](C)[C@H](NC(=O)CN)C(=O)N[C@@H](CCCNC(=N)N)C(=O)N[C@@H](Cc1c[nH]c2ccccc12)C(=O)N[C@@H](CCCCN)C(=O)N[C@@H](Cc1ccccc1)C(=O)N[C@@H](Cc1c[nH]c2ccccc12)C(=O)N[C@@H](CCCCN)C(=O)N[C@@H](Cc1ccccc1)C(=O)N[C@H](C(N)=O)[C@@H](C)O (H-GIRWKFWKFT-NH2) came out at ≥ 512 µM

---

Listed next: entries and their corresponding MIC.
Test system: Bacteria
Assay: Antibacterial activity against Gram-positive bacteria incubated for 18 hrs by CLSI based broth dilution method
Type: functional
Where a SMILES comes first, the peptide text is derived from it.
Give the value, in units of µM, as a plain number.

Memo: CC[C@H](C)[C@H](NC(=O)[C@H](CCCNC(=N)N)NC(=O)[C@H](CCCNC(=N)N)NC(=O)[C@H](Cc1ccccc1)NC(=O)[C@H](Cc1ccccc1)NC(=O)CN)C(=O)N[C@@H](CCCNC(=N)N)C(=O)N[C@H](C(=O)N[C@@H](Cc1ccccc1)C(=O)N[C@@H](Cc1ccccc1)C(N)=O)[C@@H](C)O (H-GFFRRIRTFF-NH2) , reported MIC: 16

Measured MIC of CC(C)C[C@H](NC(=O)[C@H](CC(C)C)NC(=O)[C@@H](NC(=O)[C@H](CCCCN)NC(=O)[C@H](Cc1ccccc1)NC(=O)[C@H](CCCNC(=N)N)NC(=O)[C@H](CCCCN)NC(=O)[C@H](CC(C)C)NC(=O)[C@H](CC(C)C)NC(=O)CN)[C@@H](C)O)C(N)=O (H-GLLKRFKTLL-NH2) : 64

Reported MIC of CC[C@H](C)[C@H](NC(=O)[C@H](CCCNC(=N)N)NC(=O)[C@H](CCCCN)NC(=O)[C@H](Cc1c[nH]c2ccccc12)NC(=O)[C@H](Cc1c[nH]c2ccccc12)NC(=O)CN)C(=O)N[C@@H](CCCCN)C(=O)N[C@H](C(=O)N[C@@H](Cc1c[nH]c2ccccc12)C(=O)N[C@@H](Cc1c[nH]c2ccccc12)C(N)=O)[C@@H](C)O (H-GWWKRIKTWW-NH2) : 8

---

Assay: Toxicity in ip dosed BALB/C mouse measured within 14 days by Karber-method
Assay type: organism-based
Details: in vivo, time 14 day
Where a SMILES comes first, the peptide text is derived from it. Bridges are numbered along the chain shown (N, C = ends). [ ]: non-standard residue; d: D form. The star is where a group is joined. X1 = CC[C@H](C)CCCCC(=O)*; Dab = NCC[C@H](N)C(=O)O
Here the recorded LD50 at 336 h is given for each entry.
# output: bare number, implied unit mg/kg

In plain terms, CC[C@H](C)CCCCC(=O)N[C@@H](CCN)C(=O)N[C@H](C(=O)N[C@@H](CCN)C(=O)N[C@H]1CCNC(=O)[C@H]([C@@H](C)O)NC(=O)[C@H](CCN)NC(=O)[C@H](CCN)NC(=O)[C@H](CC(C)C)NC(=O)[C@@H](Cc2ccccc2)NC(=O)[C@H](CCN)NC1=O)[C@@H](C)O (X1-[Dab]T[Dab][Dab][Dab][dF]L[Dab][Dab]T; lactam 4-C) has a documented LD50 at 336 h of 16.4

LD50 at 336 h measured on NCCCC[C@H](NC(=O)[C@H](CCCCN)NC(=O)[C@H](Cc1c[nH]c2ccccc12)NC(=O)[C@H](CCCCN)NC(=O)[C@H](CCCCN)NC(=O)[C@H](Cc1c[nH]c2ccccc12)NC(=O)[C@H](Cc1c[nH]c2ccccc12)NC(=O)[C@@H](N)CCCCN)C(=O)N[C@@H](Cc1c[nH]c2ccccc12)C(=O)N[C@@H](Cc1c[nH]c2ccccc12)C(N)=O (H-KWWKKWKKWW-NH2) = 66.5

---

Test system: Enterococcus faecalis
Experiment: Antibacterial activity against Enterococcus faecalis ATCC 29212 incubated for 18 hrs by CLSI based broth dilution method
Type: functional
Where a SMILES comes first, the peptide text is derived from it. Bridges are numbered along the chain shown (N, C = ends). [ ]: non-standard residue; d: D form. The star is where a group is joined. X1 = CC[C@H](C)CCCCC(=O)*; Dab = NCC[C@H](N)C(=O)O
A collection of compounds and their measured MIC
Entry rule: numbers only, all in µM.

compound	MIC, µM
C[C@@H](O)[C@H]1C(=O)N2C(C(=O)O)=C(S[C@@H]3CN[C@H](C(=O)N(C)C)C3)[C@H](C)[C@H]12 [MEROPENEM]	4
CC[C@H](C)[C@H](NC(=O)[C@H](CCCNC(=N)N)NC(=O)[C@H](CCCCN)NC(=O)[C@H](Cc1ccccc1)NC(=O)[C@H](Cc1ccccc1)NC(=O)CN)C(=O)N[C@@H](CCCNC(=N)N)C(=O)N[C@H](C(=O)N[C@@H](Cc1ccccc1)C(=O)N[C@@H](Cc1ccccc1)C(N)=O)[C@@H](C)O (H-GFFKRIRTFF-NH2)	64

Form: compound = CC[C@H](C)CCCCC(=O)N[C@@H](CCN)C(=O)N[C@H](C(=O)N[C@@H](CCN)C(=O)N[C@H]1CCNC(=O)[C@H]([C@@H](C)O)NC(=O)[C@H](CCN)NC(=O)[C@H](CCN)NC(=O)[C@H](CC(C)C)NC(=O)[C@@H](Cc2ccccc2)NC(=O)[C@H](CCN)NC1=O)[C@@H](C)O (X1-[Dab]T[Dab][Dab][Dab][dF]L[Dab][Dab]T; lactam 4-C) ; MIC = 128

---

MIC overview
System: Enterococcus faecalis
Assay: Antibacterial activity against Enterococcus faecalis ATCC 29212 incubated for 18 hrs by CLSI based broth dilution method
Assay type: functional
Where a SMILES comes first, the peptide text is derived from it.
Your answer should be a plain number; it is taken to be in µM.

So, N=C(N)NCCC[C@H](NC(=O)[C@H](CCCCN)NC(=O)[C@H](Cc1c[nH]c2ccccc12)NC(=O)[C@H](Cc1c[nH]c2ccccc12)NC(=O)[C@@H](N)CCCCN)C(=O)N[C@@H](Cc1c[nH]c2ccccc12)C(=O)N[C@@H](CCCCN)C(=O)N[C@@H](CCCCN)C(=O)N[C@@H](Cc1c[nH]c2ccccc12)C(=O)N[C@@H](Cc1c[nH]c2ccccc12)C(N)=O (H-KWWKRWKKWW-NH2) ? Its MIC was 16

Notebook: N=C(N)NCCC[C@H](NC(=O)[C@H](CCCNC(=N)N)NC(=O)[C@H](Cc1c[nH]c2ccccc12)NC(=O)[C@H](CCCNC(=N)N)NC(=O)[C@H](CCCNC(=N)N)NC(=O)[C@H](Cc1c[nH]c2ccccc12)NC(=O)[C@H](Cc1c[nH]c2ccccc12)NC(=O)[C@@H](N)CCCNC(=N)N)C(=O)N[C@@H](Cc1c[nH]c2ccccc12)C(=O)N[C@@H](Cc1c[nH]c2ccccc12)C(N)=O (H-RWWRRWRRWW-NH2) , MIC read as 32

---

Test system: Erythrocyte
Assay: Hemolytic activity in BALB/C mouse erythrocytes incubated for 1 hr by absorbance method
Type: ADME, cell-based
Where a SMILES comes first, the peptide text is derived from it.
property: MHC10 (µM)
A number alone suffices; assume µM.

CC[C@H](C)[C@H](NC(=O)[C@H](CCCNC(=N)N)NC(=O)[C@H](CCCCN)NC(=O)[C@H](Cc1ccccc1)NC(=O)[C@H](Cc1c[nH]c2ccccc12)NC(=O)CN)C(=O)N[C@@H](CCCCN)C(=O)N[C@H](C(=O)N[C@@H](Cc1ccccc1)C(=O)N[C@@H](Cc1c[nH]c2ccccc12)C(N)=O)[C@@H](C)O (H-GWFKRIKTFW-NH2) has a reported MHC10 of 384
